Test system: COLO 205 colon
Assay: NCI-60 one-dose screen, 48 h (100 = growth as untreated, 0 = no growth, -100 = all killed)
Conditions: 10 µM unless noted
Protocol: Cells are grown in 96 well plates and exposed to the test compound for 48 hours. Compounds are tested at a single concentration, which is 10^-5 M for most compounds. The reported endpoint is percent growth (GI% or GIPRCNT), where numbers from 0 - 100% represent growth inhibition, and numbers from -100% - 0 represent cell death. For example, a value of 40 represents 60% growth inhibition. A value of 0 means no net growth occurred over the course of the experiment. […]
The panel holds about 83,000 compounds, 20% with a hit somewhere; the sample as a whole holds those more often.
Documented growth across a set of compounds

# COMPOUND, TARGET SYSTEM, VALUE UNIT, growth
data = [
    ("CCCCCCN(CCCCCC)CCC(=O)Nc1ccc(S(=O)(=O)c2ccc(NC(=O)CCN(CCCCCC)CCCCCC)cc2)cc1", "COLO 205 colon", "%", 74.1),
    ("CN1NC(c2ccccc2)NN(C)C1=O", "COLO 205 colon", "%", 105),
    ("C[C@]12CC[C@H]3[C@@H](CC[C@H]4C[C@@H](O)CC[C@@]43C)[C@@H]1CC(=O)C2", "COLO 205 colon", "%", 101),
    ("C=CCC(CCC(CC=C)C(=O)OCC)C(=O)OCC (centres undefined)", "COLO 205 colon", "%", 110),
]
